test system: mRNA; assay: IVT capping rate of mRNA by LC-MS after RNase H cleavage; type: biochemical
Measure Name: Capping rate (%)
Give the quantity in %, number only.

[[record]]
molecule = "COCC1C(O)C(n2c[n+](C)c3c(=O)[nH]c(N)nc32)OC1C1CC1P(=O)(O)OP(=O)(O)OP(=O)(O)OCC1OC(n2cnc3c(N)ncnc32)C(OC)C1OP(=O)(O)OCC1OC(n2cnc3c(=O)[nH]c(N)nc32)C(O)C1O (stereo not shown)"
unit_of_measure = "%"
endpoint_value = 96.3


The molecule CO[C@@H]1[C@H](OP(=O)(O)OC[C@H]2O[C@@H](n3cnc4c(=O)[nH]c(N)nc43)[C@H](O)[C@@H]2O)[C@@H](COP(=O)(O)OP(=O)(O)OP(=O)(O)OC2([C@H]3O[C@@H](n4c[n+](C)c5c(=O)[nH]c(N)nc54)[C@H](O)[C@@H]3O)CC2)O[C@H]1n1cnc2c(N)ncnc21 showed Capping rate (%) equal to 98.5

The molecule CO[C@@H]1[C@H](OP(=O)(O)OC[C@H]2O[C@@H](n3cnc4c(=O)[nH]c(N)nc43)[C@H](O)[C@@H]2O)[C@@H](COP(=O)(O)OP(=O)(O)OP(=O)(O)OC2([C@H]3O[C@@H](n4c[n+](C)c5c(=O)[nH]c(N)nc54)[C@H](O)[C@@H]3OC)CC2)O[C@H]1n1cnc2c(N)ncnc21 showed Capping rate (%) equal to 98.9

The molecule COC1C(OP(=O)(O)OCC2OC(n3cnc4c(=O)[nH]c(N)nc43)C(O)C2O)C(COP(=O)(O)OP(=O)(O)OP(=O)(O)C2CC2C2OC(n3c[n+](C)c4c(=O)[nH]c(N)nc43)C(O)C2O)OC1n1cnc2c(N)ncnc21 (stereo not shown) showed Capping rate (%) equal to 99.1
